Relative Potency overview
- Target System: UniProt P11511
- Assay Remarks: Relative potency for inhibition of aromatase binding compared to aminoglutethimide

| Compound | Target System | Relative Potency |
| --- | --- | --- |
| COc1ccc2c(c1)OC(c1ccccc1)CC2n1cnnc1 (centres undefined) | UniProt P11511 | 0.16 |
| Oc1ccc2c(c1)OC(c1ccccc1)CC2n1cncn1 (centres undefined) | UniProt P11511 | 12.1 |
| COc1ccc2c(c1)OC(c1ccccc1)CC2n1cncn1 (centres undefined) | UniProt P11511 | 3.7 |
| Oc1ccc2c(c1)OC(c1ccccc1)CC2n1ccnc1 (centres undefined) | UniProt P11511 | 126.8 |

---

- Target System: Aromatase (Homo sapiens, UniProt P11511)
- Sequence (P11511 whole entry): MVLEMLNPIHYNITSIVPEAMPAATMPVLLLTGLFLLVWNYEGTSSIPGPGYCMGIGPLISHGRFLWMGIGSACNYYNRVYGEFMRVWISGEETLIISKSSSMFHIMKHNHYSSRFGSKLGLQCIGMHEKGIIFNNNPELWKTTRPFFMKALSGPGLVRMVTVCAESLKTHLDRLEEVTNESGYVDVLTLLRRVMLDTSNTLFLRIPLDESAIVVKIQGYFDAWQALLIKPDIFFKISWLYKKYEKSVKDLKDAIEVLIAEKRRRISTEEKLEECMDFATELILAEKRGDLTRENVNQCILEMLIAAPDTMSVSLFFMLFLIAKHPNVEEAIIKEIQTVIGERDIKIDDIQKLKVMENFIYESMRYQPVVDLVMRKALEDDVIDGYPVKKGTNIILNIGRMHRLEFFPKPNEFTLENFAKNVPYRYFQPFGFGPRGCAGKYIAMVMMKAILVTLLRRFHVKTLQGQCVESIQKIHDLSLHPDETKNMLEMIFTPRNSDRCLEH
Quantity Kind: IC50 (nM)

| Compound | Quantity Kind | Recorded Number |
| --- | --- | --- |
| Oc1ccc2c(c1)OC(c1ccccc1)CC2n1ccnc1 (configuration not stated) | IC50 | 40 |
| COc1ccc2c(c1)OC(c1ccccc1)CC2n1cncn1 (configuration not stated) | IC50 | 1400 |
